Can you tell me pIC50 for the items I'm about to list?
- System: Hedgehog Signaling Pathway
- Assay Method Text: SHH-induced differentiation of C3H10T1/2 cells into osteoblastic cells, intracellular alkaline phosphatase activity
- Assay type: cell-based, mouse
- Test Context: Mus musculus, C3H 10T1/2, 120 h, 10 nM SHH-N, 5 days, alkaline phosphatase activity (OD405), read-out: IC50 values of compounds that inhibit Hh pathway
pIC50: −log10 of the molar value.

Consider the following illustrative entries.
INSERT INTO assay_data (structure_notation, result) VALUES
  ('Cc1cc(-c2ccc(C(F)(F)F)cc2)ccc1C(=O)Nc1ccc(Cl)c(-c2nnc3cnccn23)c1', '< 5.00'),
  ('COc1ccc(NC(=O)c2ccc(-c3ccc(C(F)(F)F)cc3)cc2C)cc1-c1nc2ccccc2[nH]1', '< 5.00');

Turning now to a further compound:
Note pIC50 for the compound shown: `O=c1[nH]c2cc(-c3ccc(C(F)(F)F)cc3)ccc2c(=O)n1-c1ccc(Cl)c(-c2nc3ccccc3[nH]2)c1` < 5.00

---

- Test system: Hedgehog Signaling Pathway
- Assay Method Text: Gli-Luc reporter gene cell assay in C3H10T1/2/Gli-Luc cells stimulated with Shh
- Format: cell-based, mouse
- Test Context: Mus musculus, C3H 10T1/2, 24 h, 30 nM Shh, luciferase activity (RLU), read-out: IC50 values of compounds that inhibit Hh pathway
- Experimental: The Application of Reporter Gene Cell Assay for the Determination of the Inhibitory Activity of N-(3-(1H-benzo[d]imidazol-2-yl)-4-chlorophenyl)-2-methyl-4-((2S,6R)-2,6-dimethylmorpholino) benzamide and Analogs on Hedgehog Signaling Pathway […] The data were analyzed with Prism 5 software (GraphPad). […] The calculated IC50 value is a measurement of the inhibitory activity of compound to Hh pathway.
Endpoint Name: IC50 (nM)
Numbers only, in nM.

I need IC50 for every entry listed below, if you could help.
1. C[C@@H]1CN(c2ccc(C(=O)Nc3ccc(Cl)c(-c4nc5cscc5[nH]4)c3)c(Cl)c2)C[C@H](C)N1C [Example 199]
2. CS(=O)(=O)c1ccc(C(=O)Nc2ccc(Cl)c(-c3ccccn3)c2)c(Cl)c1 [GDC-0449, reference compound]
3. COc1ncc(-c2ccc(C(=O)Nc3ccc(Cl)c(-c4nc5ccccc5[nH]4)c3)c(C)c2)cn1 [Example 39]
4. Cc1cc(N2C[C@@H](C)N(C)[C@@H](C)C2)ccc1C(=O)Nc1ccc(Cl)c(-c2nc3ccc(F)cc3[nH]2)c1 [Example 98]
5. C[C@@H]1CN(c2ccc(C(=O)Nc3ccc(Cl)c(-c4ncc(-c5ccco5)[nH]4)c3)c(Cl)c2)C[C@H](C)N1C [Example 144]

1. 0.27
2. 43
3. 8.2
4. 0.96
5. 0.15

---

- Test system: Hedgehog Signaling Pathway
- Assay Method Text: Gli-Luc reporter gene cell assay in C3H10T1/2/Gli-Luc cells stimulated with Shh
- Assay type: cell-based, mouse
- Test Context: Mus musculus, C3H 10T1/2, 24 h, 30 nM Shh, luciferase activity (RLU), read-out: IC50 values of compounds that inhibit Hh pathway
- Protocol: The Application of Reporter Gene Cell Assay for the Determination of the Inhibitory Activity of N-(3-(1H-benzo[d]imidazol-2-yl)-4-chlorophenyl)-2-methyl-4-((2S,6R)-2,6-dimethylmorpholino) benzamide and Analogs on Hedgehog Signaling Pathway […] The data were analyzed with Prism 5 software (GraphPad). […] The calculated IC50 value is a measurement of the inhibitory activity of compound to Hh pathway.
Endpoint Name: IC50 (nM)
One number for each entry, in nM.

Consider the following illustrative entries.
INSERT INTO measurements (compound, endpoint_name, unit_string, quantitative_result) VALUES
  ('C[C@@H]1CN(c2cc(Cl)c(C(=O)Nc3ccc(Cl)c(-c4ncc(-c5ccco5)[nH]4)c3)cc2F)C[C@H](C)N1C [Example 149]', 'IC50', 'nM', 0.28),
  ('Cc1cc(C(=O)Nc2ccc(Cl)c(-c3nc4ccccc4[nH]3)c2)ccc1N1C[C@@H](C)N(C)[C@@H](C)C1 [Example 121]', 'IC50', 'nM', 1.6),
  ('C[C@@H]1CN(c2ccc(C(=O)Nc3ccc(Cl)c(-c4ccccn4)c3)c(Cl)c2)C[C@H](C)N1C [Example 208]', 'IC50', 'nM', 3.7),
  ('Cc1nc(N2C[C@@H](C)O[C@@H](C)C2)ccc1C(=O)Nc1cnc(Cl)c(-c2nc3ccccc3[nH]2)c1 [Example 84]', 'IC50', 'nM', 10),
  ('Cc1cc(N2C[C@@H](C)O[C@@H](C)C2)ncc1C(=O)Nc1ccc(Cl)c(-c2nc3ccccc3[nH]2)c1 [Example 91]', 'IC50', 'nM', 7.8);

I need IC50 for every entry listed below, if you could help.
1. C[C@@H]1CN(c2cc(Cl)c(C(=O)Nc3ccc(Cl)c(-c4nc5ccccc5[nH]4)c3)cc2F)C[C@H](C)N1C [Example 123]
2. Nc1cc(-c2ccc(C(F)(F)F)cc2)ccc1C(=O)Nc1ccc(Cl)c(-c2nc3ccccc3[nH]2)c1 [Example 25]

1. 0.39
2. 4

Sourced from patent US10676468B2
